Source of measurements: the supplement of paper PMC10567573

B1: MATN2 (parent)
chain: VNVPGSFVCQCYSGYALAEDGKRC

# Variants of: B1
# PROTOCOL: protein stability index of a GFP-peptide fusion (GPS, HEK-293T) (PSI 1-6); higher = more stable;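 note: lentivirally expressed fusions sorted by FACS into six bins by GFP to DsRed ratio, PSI derived from sequencing read proportions per bin multiplied by bin number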
# EXPERIMENTAL_SETUP: c terminus: a fixed tail appended
Form field: protein stability index (one value per entry).
Give a plain numeric answer without units written out.

Examples from the recorded data:
variant_notation=Y15K recorded_number=1.98
variant_notation=G14C recorded_number=2.16
variant_notation=A16L recorded_number=1.73

Exam item: Which protein stability index reading was recorded for the variant L17A ?
Marked response: 2.85

Exam item: Which protein stability index reading was recorded for the variant G21H ?
Marked response: 2.41

Exam item: Which protein stability index reading was recorded for the variant Y12V ?
Marked response: 2.13

Exam item: Which protein stability index reading was recorded for the variant Q10Y ?
Marked response: 1.97

Exam item: Which protein stability index reading was recorded for the variant E19D ?
Marked response: 1.76

Exam item: Which protein stability index reading was recorded for the variant N2H ?
Marked response: 1.97

Exam item: Which protein stability index reading was recorded for the variant Y12I ?
Marked response: 1.36

Exam item: Which protein stability index reading was recorded for the variant C24N ?
Marked response: 2.72
